Target: FGFR1 (Homo sapiens, UniProt P11362)
Construct: made in house; host or cells: E. coli host derived from BL21, infected with T7 phage
Sequence (P11362 22-822): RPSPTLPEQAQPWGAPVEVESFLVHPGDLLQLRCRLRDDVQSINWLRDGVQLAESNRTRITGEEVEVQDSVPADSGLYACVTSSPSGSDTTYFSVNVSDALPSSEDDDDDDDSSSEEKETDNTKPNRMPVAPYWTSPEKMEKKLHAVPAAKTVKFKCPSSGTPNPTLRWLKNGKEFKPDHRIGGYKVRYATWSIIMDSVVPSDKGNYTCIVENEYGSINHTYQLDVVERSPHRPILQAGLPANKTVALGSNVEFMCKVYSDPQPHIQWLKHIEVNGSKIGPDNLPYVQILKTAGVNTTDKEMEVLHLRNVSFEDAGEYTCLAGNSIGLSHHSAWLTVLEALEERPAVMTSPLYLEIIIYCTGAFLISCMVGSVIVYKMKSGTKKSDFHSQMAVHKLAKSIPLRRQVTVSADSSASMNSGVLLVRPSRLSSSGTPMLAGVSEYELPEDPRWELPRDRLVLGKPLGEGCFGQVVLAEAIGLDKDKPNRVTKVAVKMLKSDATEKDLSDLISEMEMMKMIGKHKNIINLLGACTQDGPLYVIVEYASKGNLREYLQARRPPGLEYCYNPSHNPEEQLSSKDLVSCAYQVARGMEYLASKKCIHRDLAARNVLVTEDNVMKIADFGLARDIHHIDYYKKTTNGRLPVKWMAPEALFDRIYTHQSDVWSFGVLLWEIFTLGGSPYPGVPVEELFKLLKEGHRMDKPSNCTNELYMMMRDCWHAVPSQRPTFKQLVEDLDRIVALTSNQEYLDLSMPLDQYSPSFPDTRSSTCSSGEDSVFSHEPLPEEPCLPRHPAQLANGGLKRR
Assay: Kinase binding assay (Kd), FGFR1
Conditions: 11-point 3-fold dilution, qPCR readout
Experimental: Kinase-tagged T7 phage strains were prepared in an E. coli host derived from the BL21 strain. E. coli were grown to log-phase and infected with T7 phage and incubated with shaking at 32° C. until lysis. The lysates were centrifuged and filtered to remove cell debris. […] Test compounds were prepared as 111X stocks in 100% DMSO. Kds were determined using an 11-point 3-fold compound dilution series with three DMSO control points. […] The kinase concentration in the eluates was measured by qPCR. […]
Would you kindly list Kd for each of these compounds?
Your answer should be a number followed by the unit of measure.

Request: Consider the compound shown here: COc1cc(S(C)(=N)=O)ccc1Nc1ncc(C)c(-n2ccc3ccccc32)n1 (stereo not shown) [Example 42] What is its recorded Kd?
Response: 3000 nM

Request: Consider the compound shown here: CC(C)Oc1cc(N=S(C)(C)=O)ccc1Nc1ncc(Cl)c(-c2c[nH]c3ccccc23)n1 [Example 3] What is its recorded Kd?
Response: 4500 nM

Request: Consider the compound shown here: Cc1cnc(Nc2ccc(N3CCS(=N)(=O)CC3)cc2)nc1-c1c[nH]c2ccccc12 [Example 54] What is its recorded Kd?
Response: 10 nM

Request: Consider the compound shown here: Cc1cnc(Nc2ccc(N=S(C)(C)=O)nc2)nc1-c1c[nH]c2ccccc12 [Example 23] What is its recorded Kd?
Response: 8 nM

###

Target: FGFR2 (Homo sapiens, UniProt P21802)
Construct: made in house; host or cells: E. coli host derived from BL21, infected with T7 phage
Sequence (P21802 22-821): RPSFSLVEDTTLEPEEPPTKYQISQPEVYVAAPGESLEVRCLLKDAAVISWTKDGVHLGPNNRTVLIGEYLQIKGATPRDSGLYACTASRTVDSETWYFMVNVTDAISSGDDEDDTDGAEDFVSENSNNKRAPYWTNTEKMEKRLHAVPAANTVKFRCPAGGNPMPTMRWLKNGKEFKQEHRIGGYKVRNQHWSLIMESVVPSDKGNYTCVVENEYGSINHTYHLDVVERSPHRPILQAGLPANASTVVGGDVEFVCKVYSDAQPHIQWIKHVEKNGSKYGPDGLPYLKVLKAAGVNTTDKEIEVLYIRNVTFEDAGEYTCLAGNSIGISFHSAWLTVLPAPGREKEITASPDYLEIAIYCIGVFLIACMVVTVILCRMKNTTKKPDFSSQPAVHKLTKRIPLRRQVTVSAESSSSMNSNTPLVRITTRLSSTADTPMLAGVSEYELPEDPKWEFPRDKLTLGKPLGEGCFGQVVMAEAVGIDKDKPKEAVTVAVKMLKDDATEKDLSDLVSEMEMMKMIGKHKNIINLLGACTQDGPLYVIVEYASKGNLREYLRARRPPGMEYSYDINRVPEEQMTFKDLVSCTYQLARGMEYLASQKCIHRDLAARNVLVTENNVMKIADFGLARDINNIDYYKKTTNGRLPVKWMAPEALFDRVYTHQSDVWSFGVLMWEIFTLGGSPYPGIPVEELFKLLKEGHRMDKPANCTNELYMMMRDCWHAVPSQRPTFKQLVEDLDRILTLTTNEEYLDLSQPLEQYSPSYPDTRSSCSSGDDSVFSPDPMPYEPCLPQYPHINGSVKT
Experiment: Kinase binding assay (Kd), FGFR2
Settings: 11-point 3-fold dilution, qPCR readout
Would you kindly list Kd for each of these molecules?
Supply the numeric figure in nM, leaving out any unit text.

Request: Request body: readout Kd, system FGFR2 (Homo sapiens, UniProt P21802), query COc1c(N=S(C)(C)=O)cccc1Nc1ncc(Cl)c(-c2c[nH]c3ccccc23)n1 [Example 5] . Return the value.
Response: 14000

Request: Request body: readout Kd, system FGFR2 (Homo sapiens, UniProt P21802), query CS(C)(=O)=Nc1ccc(Nc2nccc(-n3ccc4ccccc43)n2)c(N)c1 [Example 18] . Return the value.
Response: 21000

Request: Request body: readout Kd, system FGFR2 (Homo sapiens, UniProt P21802), query CCC(=O)Nc1ccc2c(ccn2-c2nc(Nc3ccc(N4CCS(=N)(=O)CC4)cc3)ncc2Cl)c1 [Example 73] . Return the value.
Response: 380

Request: Request body: readout Kd, system FGFR2 (Homo sapiens, UniProt P21802), query C=CC(=O)Nc1ccc2c(ccn2-c2nc(Nc3ccc(S(C)(=N)=O)cc3)ncc2C)c1 (stereo not shown) [Example 74] . Return the value.
Response: 77

###

Target: FGFR3 (V555M) (Homo sapiens, UniProt P22607, V555M)
Construct: made in house; host or cells: E. coli host derived from BL21, infected with T7 phage
Sequence (P22607 23-806 V555M): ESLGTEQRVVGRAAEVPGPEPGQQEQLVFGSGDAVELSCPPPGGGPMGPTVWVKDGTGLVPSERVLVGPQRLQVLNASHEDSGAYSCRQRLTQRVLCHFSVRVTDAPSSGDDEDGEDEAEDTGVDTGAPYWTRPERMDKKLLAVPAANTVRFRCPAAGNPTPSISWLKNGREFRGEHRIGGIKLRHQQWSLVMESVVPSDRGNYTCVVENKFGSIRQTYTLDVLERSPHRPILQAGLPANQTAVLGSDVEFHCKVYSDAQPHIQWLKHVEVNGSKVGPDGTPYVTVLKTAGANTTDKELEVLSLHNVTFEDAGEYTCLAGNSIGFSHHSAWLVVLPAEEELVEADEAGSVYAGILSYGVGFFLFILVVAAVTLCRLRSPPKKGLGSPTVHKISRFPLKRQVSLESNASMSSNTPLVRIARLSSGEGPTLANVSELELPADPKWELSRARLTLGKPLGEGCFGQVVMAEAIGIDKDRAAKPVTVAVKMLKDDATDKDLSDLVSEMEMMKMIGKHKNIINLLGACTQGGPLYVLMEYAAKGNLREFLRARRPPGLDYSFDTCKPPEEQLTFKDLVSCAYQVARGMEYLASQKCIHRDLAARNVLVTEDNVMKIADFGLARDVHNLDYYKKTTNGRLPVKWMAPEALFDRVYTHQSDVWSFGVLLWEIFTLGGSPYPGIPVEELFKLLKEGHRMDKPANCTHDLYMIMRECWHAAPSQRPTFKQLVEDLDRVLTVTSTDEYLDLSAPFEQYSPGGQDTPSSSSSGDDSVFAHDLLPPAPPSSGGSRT
Assay: Kinase binding assay (Kd), FGFR3 (V555M)
Conditions: 11-point 3-fold dilution, qPCR readout
Output: class label from Kd. Mapping: band 1 (below 4 nM), band 2 (4 nM to below 10 nM), band 3 (10 nM or more)

Request: Determine which band this compound sits in: CC(C)COc1cc(N=S(C)(C)=O)ccc1Nc1ncc(Cl)c(-c2c[nH]c3ccccc23)n1
Response: band 3

Request: Determine which band this compound sits in: C=CC(=O)Nc1ccc2c(ccn2-c2nc(Nc3ccc(S(C)(=N)=O)cc3OC)ncc2Cl)c1 (single isomer, unassigned) [Example 88]
Response: band 3

Request: Determine which band this compound sits in: C=CC(=O)Nc1cccc2c(-c3nc(Nc4ccc(S(C)(=N)=O)cc4)ncc3Cl)c[nH]c12 (stereo not drawn)
Response: band 1

Request: Determine which band this compound sits in: COc1cc(Nc2ncc(C)c(-c3c[nH]c4c(F)cccc34)n2)ccc1N=S(C)(C)=O
Response: band 1

Request: Determine which band this compound sits in: COc1ccc2c(-c3nc(Nc4ccc(N=S(C)(C)=O)cc4)ncc3C)c[nH]c2c1
Response: band 1

Request: Determine which band this compound sits in: CS(C)(=O)=Nc1ccc(Nc2ncc(Cl)c(-n3ccc4c(N)cccc43)n2)cc1
Response: band 2

Request: Determine which band this compound sits in: COc1ccc(N=S(C)(C)=O)cc1Nc1ncc(Cl)c(-c2c[nH]c3ccccc23)n1
Response: band 3

Request: Determine which band this compound sits in: Cc1cnc(Nc2ccc(S(C)(=N)=O)cc2)nc1-c1c(C)[nH]c2ccccc12 (stereo not drawn)
Response: band 2

Request: Determine which band this compound sits in: C=CC(=O)Nc1ccc2c(ccn2-c2nc(Nc3ccc(N=S4(=O)CCN(C)CC4)cc3)ncc2Cl)c1
Response: band 1

Request: Determine which band this compound sits in: CS(C)(=O)=Nc1ccc(Nc2ncc(F)c(-c3c[nH]c4ccccc34)n2)cc1
Response: band 3

Request: Determine which band this compound sits in: COc1cc(N2CCS(=N)(=O)CC2)ccc1Nc1ncc(C)c(-n2ccc3ccccc32)n1
Response: band 3

Request: Determine which band this compound sits in: COc1cc(N2CCS(=N)(=O)CC2)ccc1Nc1ncc(Cl)c(-c2c[nH]c3ccccc23)n1
Response: band 2

Request: Determine which band this compound sits in: C=CC(=O)Nc1ccc2c(c1)c(C)cn2-c1nc(Nc2ccc(N=S(C)(C)=O)cc2)ncc1Cl
Response: band 1

Data provenance is patent US20230115945A1.
